- System: 926638-142-R-J1-PDC complex spheroid viability;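 also: spheroids exposed to drugs for one week before readout; percent viability relative to DMSO vehicle control wells set as 100%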
- measurement_notes: Anticancer human tumor 926638-142-R-J1-PDC patient-derived endometrial carcinoma cell line growth inhibition [POLQ]
- applied_conditions: second compound 0.316 µM; first compound 0.0316 µM; hits give low values
viability, T/C: recorded values
Respond numerically; units are % and should not be typed.

compound="CC[C@@]1(O)C(=O)OCc2c1cc1n(c2=O)Cc2cc3c(CN(C)C)c(O)ccc3nc2-1 + Cc1cccc(N(C)C(=O)C2C(O)CCN2c2nc(C)cc(C(F)(F)F)c2C#N)c1" outcome_measure="viability, T/C" recorded_number=57.4
compound="Cn1ncnc1[C@H]1c2n[nH]c(=O)c3cc(F)cc(c23)N[C@@H]1c1ccc(F)cc1 + Cc1cccc(N(C)C(=O)C2C(O)CCN2c2nc(C)cc(C(F)(F)F)c2C#N)c1" outcome_measure="viability, T/C" recorded_number=64.9

Request: Requested read-out: viability, T/C. Entry: O=c1[nH]cc(F)c(=O)[nH]1 + COC1C(OC(N)=O)C(O)C(Oc2ccc3c(O)c(NC(=O)c4ccc(O)c(CC=C(C)C)c4)c(=O)oc3c2C)OC1(C)C
Result: 125

Hey, just so you know, these numbers are from PubChem BioAssay AID1963826.
